Overview of reported CPE inhibition across a group of compounds:
- test_details: inhibitors of Bluetongue virus cytopathic effect, confirmation, arbovirus, BSR cells (AID 1250)
- condition_details: BSR cells, Bluetongue virus CPE, ATP luminescence, 72 h; at 20 µM (top of the series)
Give just the numeric value; % need not be written.

// below: answered compounds
[[record]]
compound = "Cc1noc(C)c1C(=O)OCC(=O)Nc1cc(Cl)ccc1Oc1ccccc1"
output_unit = "%"
assay_result = 22.6

[[record]]
compound = "Cc1ccc(OCCSCc2nnc(NC(=O)Nc3cccc(Cl)c3)s2)cc1"
output_unit = "%"
assay_result = 19.4

[[record]]
compound = "CCOc1ccc(NC(=O)Nc2cc(-c3ccccc3)sc2C(=O)OC)cc1"
output_unit = "%"
assay_result = 14.7

[[record]]
compound = "Cc1cccc(-n2c(=O)c3c4c(sc3n3c(=S)[nH]nc23)CCC4)c1"
output_unit = "%"
assay_result = 7.97

[[record]]
compound = "COc1ccc(-c2nnc(-c3ccc(Br)o3)o2)cc1OC"
output_unit = "%"
assay_result = 14.5

[[record]]
compound = "OCC1(CCOc2ccccc2)CCN(Cc2nc3ccc(F)cc3[nH]2)CC1"
output_unit = "%"
assay_result = 7.83

[[record]]
compound = "CCOc1ccc(S(=O)(=O)N2CCN(c3ccccc3OC)CC2)c2cccnc12"
output_unit = "%"
assay_result = 17.1

[[record]]
compound = "Cc1cccc(-n2nc(C)c3c(C(=O)O)cc(-c4cccs4)nc32)c1"
output_unit = "%"
assay_result = 24.9


Please look at this compound and report its CPE inhibition: "C/C(=N\Nc1nc2ccccc2[nH]1)c1ccc2c(c1)OCO2"
8.76

Please look at this compound and report its CPE inhibition: CC(C)C(=O)Nc1nnc(SCC(=O)N2c3ccccc3CC2C)s1 (stereo unspecified)
11.5

Please look at this compound and report its CPE inhibition: "O=C(O)CSc1nc(-c2ccc(Cl)cc2)nc2c1oc1ccccc12"
24.1

###

- test_details: inhibitors of Bluetongue virus cytopathic effect, confirmation, arbovirus, BSR cells (AID 1250)
- condition_details: BSR cells, Bluetongue virus CPE, ATP luminescence, 72 h; at 20 µM (top of the series)
recorded_endpoint: CPE inhibition (%)
Give just the numeric value; % need not be written.

// below: answered molecules
[[record]]
molecule = "Clc1cccc(-c2cc3nc4c(c(NCc5ccco5)n3n2)CCCC4)c1"
output_unit = "%"
assay_result = 10.7

[[record]]
molecule = "COc1cccc(CN=C2Nc3ccccc3CS2)c1"
output_unit = "%"
assay_result = -0.42


Please look at this molecule and report its CPE inhibition: "Cc1ccc(C(=O)O)cc1-c1ccc(/C=C2/NC(=O)N(c3ccccc3)C2=O)o1"
19.9

Please look at this molecule and report its CPE inhibition: "Cc1cc(C)c(NC(=S)NC(=O)c2ccc(-c3ccccc3)cc2)c(C)c1"
14.9

###

- test_details: inhibitors of Bluetongue virus cytopathic effect, confirmation, arbovirus, BSR cells (AID 1250)
- condition_details: BSR cells, Bluetongue virus CPE, ATP luminescence, 72 h; at 20 µM (top of the series)
Overview of reported CPE inhibition across a group of compounds:
Give just the numeric value; % need not be written.

[[record]]
compound = "O=C(/C=C/c1ccc2c(c1)OCCCO2)c1ccc2ccccc2c1O"
output_unit = "%"
assay_result = 18.2


Please look at this compound and report its CPE inhibition: "N=C(N)SCc1nc2ccccc2c(=O)n1-c1ccccc1"
-4.62

Please look at this compound and report its CPE inhibition: COCCn1c(SC(C)C(=O)Nc2ncc(Cl)cc2Cl)nc2ccccc21 (stereo unspecified)
21
